Form field: IC50 (one value per entry).
Target: DNA-PK phosphorylation at serine 2056 (Homo sapiens (Human))
Assay: DNA-PK phosphorylation at serine 2056 (cellular), bleomycin-treated HCT116 cells, ELISA
Assay type: cell-based
Settings: cellular DNA-PK phosphorylation at serine 2056, HCT116; read-out: IC50 pDNA-PK
Experimental: HCT116 cells were cultivated at 37° C. and 10% CO2 in MEM alpha medium with 10% of foetal calf serum and 2 mM glutamine. The cells were detached from the base of the culture vessels with the aid of trypsin/EDTA, centrifuged off in centrifuge tubes, taken up in fresh medium, and the cell density was determined. […] The development of the enzymatic reaction was carried out with the aid of a chemiluminescent reagent, the chemiluminescence was measured with the aid of a Mithras LB940. […]

# count of solved cases: 4
OC(c1ccc(F)c(-c2ncnc3cc(N4CCOCC4)ccc23)c1)c1ncccc1OC(F)(F)F (centres unmarked) [Example 475] | < 500 nM
Cn1c(C(O)c2cc(-c3ncnc4cc(N5CCOCC5)ccc34)c(F)cc2F)cccc1=O (centres unmarked) [Example 381] | 500 to 5000 nM
OC(c1ccc(F)c(-c2ncnc3cc(N4CCOCC4)ccc23)c1)c1ncnc2ccoc12 (centres unmarked) [Example 442] | < 500 nM
COc1nccnc1C(O)c1cc(-c2ncnc3cc(N4CCOCC4)cnc23)c(F)cc1Cl (centres unmarked) [Example 231] | 500 to 5000 nM

Problem: Entry under review: Cn1cnc2ncnc(C(O)c3cc(-c4ncnc5cc(N6CCOCC6)ccc45)c(F)cc3Cl)c21 (centres unmarked) [Example 423] . Reported IC50?
Result: 5000 to 10000 nM

Problem: Entry under review: Cn1c(C(O)c2cc(-c3ncnc4cc(N5CCOCC5)ccc34)c(F)cc2Cl)cccc1=O (centres unmarked) [Example 383] . Reported IC50?
Result: < 500 nM

Problem: Entry under review: Cc1nccnc1C(O)c1cc(-c2ncnc3cc(N4CCOCC4)ccc23)ccc1Cl (centres unmarked) [Example 428] . Reported IC50?
Result: < 500 nM

Problem: Entry under review: OC(c1ccc(F)c(-c2ncnc3cc(N4CCOCC4)ccc23)c1)c1ncnn2cccc12 (centres unmarked) [Example 345] . Reported IC50?
Result: < 500 nM
